Biological target: Adenosine receptor A1 (Homo sapiens)
Sequence (P30542 whole entry): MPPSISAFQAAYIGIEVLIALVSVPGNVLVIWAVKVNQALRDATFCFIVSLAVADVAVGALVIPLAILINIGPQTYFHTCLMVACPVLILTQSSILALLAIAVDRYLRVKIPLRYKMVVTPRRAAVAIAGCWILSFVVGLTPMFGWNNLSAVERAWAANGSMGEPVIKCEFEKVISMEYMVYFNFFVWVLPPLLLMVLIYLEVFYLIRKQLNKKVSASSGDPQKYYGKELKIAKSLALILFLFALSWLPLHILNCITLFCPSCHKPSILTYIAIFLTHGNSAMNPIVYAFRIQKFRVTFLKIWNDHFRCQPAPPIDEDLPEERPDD
REPORTED METRIC: log10(Ki) (log10 of the value in nM)
// do not treat as linear: log10 of Ki, unit nM

Examples from the recorded data:
{"MOL SMILES": "CNC(=O)[C@H]1[Se][C@@H](n2cnc3c(NC)ncnc32)[C@H](O)[C@@H]1O", "NUMERIC VALUE": 3.31}
{"MOL SMILES": "CNC(=O)[C@H]1[Se][C@@H](n2cnc3c(NCc4ccc5ccccc5c4)ncnc32)[C@H](O)[C@@H]1O", "NUMERIC VALUE": 2.64}
{"MOL SMILES": "CNC(=O)[C@H]1[Se][C@@H](n2cnc3c(NC4CC4)ncnc32)[C@H](O)[C@@H]1O", "NUMERIC VALUE": 1.92}

I need log10(Ki) for every entry listed below, if you could help.
1. CNC(=O)[C@H]1[Se][C@@H](n2cnc3c(NCc4cccc(Br)c4)ncnc32)[C@H](O)[C@@H]1O
2. CNC(=O)[C@H]1[Se][C@@H](n2cnc3c(NCc4cccc(I)c4)ncnc32)[C@H](O)[C@@H]1O

1. 2.34
2. 2.68

I need log10(Ki) for every entry listed below, if you could help.
1. CNC(=O)[C@H]1[Se][C@@H](n2cnc3c(NC4CCCC4)ncnc32)[C@H](O)[C@@H]1O
2. CNC(=O)[C@H]1[Se][C@@H](n2cnc3c(NCc4cccc(Cl)c4)ncnc32)[C@H](O)[C@@H]1O
3. CNC(=O)[C@H]1[Se][C@@H](n2cnc3c(NCc4ccccc4OC)ncnc32)[C@H](O)[C@@H]1O

1.40
2.76
3.27
